target: UniProt:P06276
Sequence (P06276 whole entry): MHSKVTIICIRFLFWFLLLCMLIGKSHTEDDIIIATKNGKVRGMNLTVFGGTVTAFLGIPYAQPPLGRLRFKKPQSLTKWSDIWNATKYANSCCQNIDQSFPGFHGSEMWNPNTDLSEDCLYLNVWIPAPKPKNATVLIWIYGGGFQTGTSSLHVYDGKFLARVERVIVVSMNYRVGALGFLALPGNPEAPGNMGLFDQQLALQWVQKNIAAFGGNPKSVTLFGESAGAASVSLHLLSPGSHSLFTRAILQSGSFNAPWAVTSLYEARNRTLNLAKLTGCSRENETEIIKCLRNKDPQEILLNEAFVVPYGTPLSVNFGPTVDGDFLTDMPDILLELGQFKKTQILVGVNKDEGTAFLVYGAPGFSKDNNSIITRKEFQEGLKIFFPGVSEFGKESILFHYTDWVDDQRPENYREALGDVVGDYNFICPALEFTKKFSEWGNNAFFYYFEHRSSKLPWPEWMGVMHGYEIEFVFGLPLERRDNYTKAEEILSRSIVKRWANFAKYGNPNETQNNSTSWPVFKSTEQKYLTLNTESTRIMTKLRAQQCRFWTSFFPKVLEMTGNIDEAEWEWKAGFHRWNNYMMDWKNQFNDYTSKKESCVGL
So basically: is IC50 under 90 nM? Then rule met. Not under? Then rule not met.

>>> df
                                    compound   label_class
 0  CN1CC[C@]2(C)c3cc(OC(=O)Nc4ccccc4)ccc3N(C)C12 (some centres not stated)  rule not met
 1  CN1CC[C@@]2(C)c3cc(OC(=O)Nc4ccccc4)ccc3NC12 (some centres not stated)  rule not met
 2  CNC(=O)Oc1ccc2c(c1)[C@]1(C)CCN(C)C1N2C=O (some centres not stated)      rule met
 3  CN1CC[C@]2(C)c3cc(OC(=O)Nc4ccccc4)ccc3N(Cc3ccccc3)C12 (some centres not stated)  rule not met
 4  CN1CC[C@]2(C)c3cc(OC(=O)Nc4ccccc4)ccc3NC12 (some centres not stated)  rule not met
 5  CNC(=O)Oc1ccc2c(c1)[C@@]1(C)CCN(C)C1N2 (some centres not stated)  rule not met
 6  CNC(=O)Oc1ccc2c(c1)[C@]1(C)CCN(C)C1N2Cc1ccccc1 (some centres not stated)      rule met
 7  CNC(=O)Oc1ccc2c(c1)[C@@]1(C)CCN(C)C1N2Cc1ccccc1 (some centres not stated)  rule not met
 8  CN1CC[C@@]2(C)c3cc(OC(=O)Nc4ccccc4)ccc3N(C=O)C12 (some centres not stated)  rule not met
 9  CN1CC[C@@]2(C)c3cc(OC(=O)Nc4ccccc4)ccc3N(Cc3ccccc3)C12 (some centres not stated)      rule met
10  CNC(=O)Oc1ccc2c(c1)[C@]1(C)CCN(C)C1N2 (some centres not stated)      rule met
11  CN1CC[C@@]2(C)c3cc(OC(=O)Nc4ccccc4)ccc3N(C)C12 (some centres not stated)  rule not met
